tested on: KMS-11; experiment: Antiproliferative against human KMS-11 cells after 5 days by Cell-Titer Glo assay; type: functional, cell-based; details: KMS-11, 120 h
reported endpoint: pEC50
Give only the number. pEC50 is defined as minus log10 of concentration in molar units.

Would you kindly share the measured pEC50 for `COc1cc2c(NC3CCN(C(C)C)CC3)nc(C3CCCCC3)nc2cc1OCCCN1CCCC1` ? 5.40

----------
system: ZR-75-30; test: Antiproliferative against human ZR-75-30 cells after 7 days by Cell-Titer Glo assay; type: functional, cell-based; conditions: ZR-75-30, 168 h
reported endpoint: EC50 (nM)
Report only the number, with the unit nM understood.

Record request: EC50 value, item `COc1cc2c(NC3CCN(C(C)C)CC3)nc(C3CCCCC3)nc2cc1OCCCN1CCCC1` 1200

----------
Measured EC50, listed per entry for reference.
test system: HT-1080; test: Antiproliferative against human HT-1080 cells after 5 days by Cell-Titer Glo assay; type: functional, cell-based; details: HT-1080, 120 h

smiles representation: COc1cc2c(NC3CCN(C(C)C)CC3)nc(C3CCCCC3)nc2cc1OCCCN1CCCC1
target under test: HT-1080
EC50: 500 nM

Consider now this further compound.
# EC50 lookup, item `COc1cc2c(cc1OCCCN1CCCC1)N=C(N)C21CCC1` > 10000 nM

----------
tested on: NCI-H929; assay: Antiproliferative against human NCI-H929 cells after 5 days by Cell-Titer Glo assay; assay type: functional, cell-based; details: NCI-H929, 120 h
reported endpoint: pEC50
Notebook: values listed as pEC50 are -log10 of the concentration (mol/L).

Which pEC50 is listed for `COc1cc2c(NC3CCN(C(C)C)CC3)nc(C3CCCCC3)nc2cc1OCCCN1CCCC1` ? 5.34

----------
system: SK-N-MC; experiment: Antiproliferative against human SK-N-MC cells after 7 days by Cell-Titer Glo assay; assay type: functional, cell-based; details: 168 h
reported endpoint: pEC50
A value of pEC50 is the negative decimal logarithm of a concentration given in moles per litre.

Give the measured pEC50 of `COc1cc2c(NC3CCN(C(C)C)CC3)nc(C3CCCCC3)nc2cc1OCCCN1CCCC1` . 6.70

----------
tested on: MOLT-16; assay: Antiproliferative against human MOLT-16 cells after 5 days by Cell-Titer Glo assay; type: functional, cell-based; settings: MOLT-16, 120 h
reported endpoint: EC50 (nM)
Note: unit nM is implicit; provide only the numeric part.

Given the entry `COc1cc2c(NC3CCN(C(C)C)CC3)nc(C3CCCCC3)nc2cc1OCCCN1CCCC1` , report its measured EC50. 200

----------
test system: LN-229; test: Antiproliferative against human LN-229 cells after 5 days by Cell-Titer Glo assay; format: functional, cell-based; details: LN-229, 120 h
reported endpoint: pEC50
Keep in mind that pEC50 stands for -log10 of concentration in molar terms.

Need pEC50, item `COc1cc2c(NC3CCN(C(C)C)CC3)nc(C3CCCCC3)nc2cc1OCCCN1CCCC1` 6.30

----------
test system: LNCaP; assay: Antiproliferative against human LNCaP cells after 5 days by Cell-Titer Glo assay; type: functional, cell-based; details: 120 h
reported endpoint: EC50 (nM)
Expressed in nM, but write only the number.

Look up EC50 for this compound: `COc1cc2c(NC3CCN(C(C)C)CC3)nc(C3CCCCC3)nc2cc1OCCCN1CCCC1` 300

----------
Each entry below carries its recorded EC50.
experiment: Antiproliferative against human TC71 cells after 7 days by Cell-Titer Glo assay; format: functional, cell-based; conditions: TC-71, 168 h

Look up EC50: `COc1cc2c(NC3CCN(C(C)C)CC3)nc(C3CCCCC3)nc2cc1OCCCN1CCCC1` 600 nM

State the recorded EC50 for this entry: `COc1cc2c(cc1OCCCN1CCCC1)N=C(N)C21CCC1` > 10000 nM

----------
tested on: NCI-H358; experiment: Antiproliferative against human NCI-H358 cells after 5 days by Cell-Titer Glo assay; format: functional, cell-based; conditions: NCI-H358, 120 h
reported endpoint: EC50 (µM)
Hi! Could you send only the number? It should be in µM, unit omitted.

Give the measured EC50 of `COc1cc2c(NC3CCN(C(C)C)CC3)nc(C3CCCCC3)nc2cc1OCCCN1CCCC1` . 4.3
